Record: compiled pKi on UniProt P19327 from multiple reports.
- Assay System: UniProt P19327
- Sequence (P19327 whole entry): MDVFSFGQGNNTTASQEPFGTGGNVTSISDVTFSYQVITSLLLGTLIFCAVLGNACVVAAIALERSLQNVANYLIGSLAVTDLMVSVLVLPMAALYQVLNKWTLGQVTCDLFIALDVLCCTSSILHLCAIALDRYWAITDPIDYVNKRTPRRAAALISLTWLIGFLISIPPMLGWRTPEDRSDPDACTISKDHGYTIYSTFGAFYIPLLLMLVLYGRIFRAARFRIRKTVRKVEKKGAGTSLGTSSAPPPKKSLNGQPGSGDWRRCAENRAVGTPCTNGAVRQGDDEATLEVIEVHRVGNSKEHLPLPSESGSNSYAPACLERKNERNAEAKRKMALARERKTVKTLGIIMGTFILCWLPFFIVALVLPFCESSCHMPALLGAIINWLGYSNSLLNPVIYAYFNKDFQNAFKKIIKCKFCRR
pKi: −log10 of the molar value.
Would you mind labelling by pKi? At or over 7 is true, under is false.

Worked cases, answers included:
{"columns": ["Molecule", "Cat"],
 "data": [
  ["O=C1Nc2cccc3c2C1(CCCCN1CCc2sccc2C1)CCC3 (stereo unspecified)", "false"],
  ["CC(C)Oc1ccccc1N1CCN(CCCCCCCn2ncc(N3CCN(C(=O)c4ccco4)CC3)c(Cl)c2=O)CC1", "true"],
  ["COc1ccc2c(c1)C(=O)N(CCN1CCN(c3ccc(Cl)cc3)CC1)CC2", "true"]
]}

Quick check, pKi >= 7? O=C1Nc2ccccc2C1CCCCN1CCN(c2ccccn2)CC1 (stereo unspecified) true

pKi >= 7 for `Cn1c(=O)c2c([nH]c(=O)n2CCCN2CCN(c3ccccc3)CC2)n(C)c1=O` ? false

pKi >= 7 for CC(C)(C)NCC(O)COc1ccc2c(c1)C[C@H](O)[C@H](O)C2 (stereo partly specified) ? false

* * *

- Assay System: 5-hydroxytryptamine receptor 1A (Rattus norvegicus, UniProt P19327)
- Sequence (P19327 whole entry): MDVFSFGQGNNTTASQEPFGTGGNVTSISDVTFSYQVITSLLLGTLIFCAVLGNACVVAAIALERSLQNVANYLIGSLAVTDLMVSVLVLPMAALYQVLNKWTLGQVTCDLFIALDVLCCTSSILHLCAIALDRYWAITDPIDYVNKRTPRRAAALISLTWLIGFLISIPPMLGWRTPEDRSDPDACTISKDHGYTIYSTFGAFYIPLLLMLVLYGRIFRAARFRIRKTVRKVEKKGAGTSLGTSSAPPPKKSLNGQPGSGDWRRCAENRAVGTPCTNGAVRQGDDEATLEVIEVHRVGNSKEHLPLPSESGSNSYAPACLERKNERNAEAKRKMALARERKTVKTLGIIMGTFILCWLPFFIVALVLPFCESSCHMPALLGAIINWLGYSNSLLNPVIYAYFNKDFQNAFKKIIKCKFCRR
pKi: −log10 of the molar value.
Field: pKi. System: 5-hydroxytryptamine receptor 1A (Rattus norvegicus, UniProt P19327). Provenance: assorted publications.
Classification field: t = pKi at or over 8; f = pKi under 8.

Answered cases to consult:
{"columns": ["Compound", "Cat"],
 "data": [
  ["O=C1CC2(CCCCC2)C(=O)N1CCN1CCN(c2cccc(Cl)c2)CC1", "t"],
  ["O=C1C2CCCN2C(=O)N1CN1CCN(c2cccc(C(F)(F)F)c2)CC1 (stereo not given)", "f"],
  ["Cn1c(=O)c2c(nc3n(CCCCCN4CCN(c5ccc(Cl)cc5)CC4)c(-c4ccccc4)cn23)n(C)c1=O", "f"],
  ["Cc1ccc2ncc3c(=O)n(CCCN4CCN(c5ccccc5)CC4)cnc3c2c1", "f"],
  ["COc1ccccc1N1CCN(CCCCNC(=O)c2ccc(C)s2)CC1", "t"],
  ["Cl.O=C(c1ccc(CN2CCN(c3cccc4ccoc34)CC2)s1)N1CCCCC1", "t"],
  ["O=c1c(-c2ccc(Cl)cc2)c2ccccn2c(=O)n1CCCCN1CC=C(c2c[nH]c3ccc(Br)cc23)CC1", "f"]
]}

Is the recorded value of pKi equal to or greater than 8 for this compound? `c1ccc(CN2CCN(c3nc4ncccc4n4cccc34)CC2)cc1` f
